assay: modulators of HCV replicon luciferase signal, primary screen, HCV replication inhibitor project, Huh7 cells, luciferase reporter (AID 1109); conditions: 48 h, higher = more signal;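 also: huh7 hepatoma cells harbouring a luciferase neomycin HCV replicon reporter; luciferase luminescence as measure of HCV replicon replication; test concentration not given here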
assay endpoint: z-score
Reply with just the number.

Known z-score results, listed for orientation:
molecule=COc1ccc([Si](C)(C)[C@@H]2[C@@H](CCn3cc([C@H](O)c4ccccc4)nn3)O[C@]3(C(=O)N(C)c4c(Br)cc(C)cc43)[C@H]2C)cc1 value_observed=-4.23
molecule=CCCCC(=C=CC[C@H](O)c1cccc(OCCO)c1)CCO value_observed=-1.21
molecule=C[N+](C)(C)CCCC[C@@H]1NC(=O)[C@H]2C[C@@H](C(=O)NCCCCCN)[C@@H](c3cccc(OCCO)c3)N2C1=O value_observed=-0.295
molecule=NC(=O)NCC#Cc1ccc2c(c1)[C@]1(C(=O)N2)[C@H](c2ccc(OCCO)cc2)N2[C@H](c3ccccc3)[C@H](c3ccccc3)OC(=O)[C@H]2[C@@H]1C(=O)Nc1nc2ccccc2s1 value_observed=-0.495
molecule=COCCOC(=O)N1C(=O)[C@@]2(c3ccccc31)[C@H](C(=O)Nc1nc3ccccc3s1)[C@H]1C(=O)O[C@H](c3ccccc3)[C@H](c3ccccc3)N1[C@@H]2c1ccc(O)cc1 value_observed=-2.04
molecule=C=CCC1(CC=C)C[C@H]2CO[C@H](c3ccc(OC)cc3)N2C1=O value_observed=0.805
molecule=O=C(O)[C@H]1C[C@H]2C(=O)NCC(=O)N2[C@H]1c1cccc(OCCO)c1 value_observed=3.1
molecule="CC(C)C(CO)N1C(=O)[C@@H]2C3C(=O)OCCC/C=C\\[C@H]3OC23C=CCN(C(C)C)C(=O)[C@@H]13 (stereo partly drawn)" value_observed=-0.069
molecule=C=CCN1C(=O)[C@@]2(O[C@@H](CCn3cc(CCO)nn3)[C@H]([Si](C)(C)c3ccc(OC)cc3)[C@H]2C)c2cc(NC(=O)c3ccc(OC)cc3)ccc21 value_observed=-3.92
molecule=COCCOC(=O)N1C(=O)[C@@]2(c3cc(C#CCNC(N)=O)ccc31)[C@H](c1ccccc1OCCO)N1[C@H](c3ccccc3)[C@H](c3ccccc3)OC(=O)[C@H]1[C@@H]2C(=O)Nc1nc2ccccc2s1 value_observed=0.048

What value of z-score has been recorded for this entry: C=C(COC)/C(=C/C[C@H](OC(C)=O)c1ccc(CO)o1)c1cnc2ccccc2c1
-1.18

For the molecule shown here, CCOC(=O)C[C@H]1[C@H](OC(=O)c2ccc(-c3ccccc3)cc2)[C@@H](NC(=O)C2CCCCC2)c2cc(OCCCO)ccc2N1C(=O)c1ccc2ccccc2n1 , give the reported z-score.
-0.241

For CCOC(=O)C[C@H]1[C@H](OC(=O)c2ccc(C(=O)c3ccccc3)cc2)[C@@H](NC(=O)Cc2ccc(OC)cc2)c2cc(OCCCO)ccc2N1C(=O)Cc1ccc(OC)cc1 , what is its reported z-score?
-1.06

Using the record for CC(C)NC(=O)[C@@H]1c2ccccc2C(=O)N(Cc2cc(F)cc(C(F)(F)F)c2)[C@H]1c1ccc(CO)cc1 , report its z-score.
0.32

Look up z-score: CC(C)C[C@@H]1NC(=O)[C@@]23C(=O)N[C@@H](Cc4ccccc4)C2[C@H](C)[C@@]2(C)O[C@H]2C3/C=C/C/C=C\CNC(=O)[C@H](Cc2ccccc2)NC1=O (stereo partly drawn)
-2.08

# z-score lookup, item CC(C)C[C@@H]1NC(=O)[C@@]23C(=O)N[C@@H](Cc4ccccc4)C2[C@H](C)[C@@]2(C)O[C@H]2C3/C=C/CC/C=C/CNC(=O)[C@@H](C)NC1=O (stereo partly drawn)
0.42

Quick check: z-score of CC(C)(C)OC(=O)CC[C@]1(C(=O)NCc2ccccc2)N=C(c2ccc(OCCCO)cc2)O[C@H]1c1ccccc1N=[N+]=[N-] ?
-0.5

Look up z-score: C=CCN1C(=O)[C@]2(O[C@H](CCn3cc([C@H](O)c4ccccc4)nn3)[C@@H]([Si](C)(C)c3ccc(OC)cc3)[C@@H]2C)c2cc(N3CCOC3=O)ccc21
-3.64

Using the record for CO[C@H]1O[C@H](CO)[C@@H](OC(=O)Nc2ccccc2)[C@H](OC(=O)Nc2ccccc2-c2ccccc2)[C@@H]1OC(=O)Nc1ccccc1-c1ccccc1 , report its z-score.
-3.09

Given C=C(COC)C(=O)CC[C@@H](OC(=O)c1ccccc1-c1ccccc1C(=O)O)c1cccc(OCCO)c1 , state its recorded z-score.
-0.54

So what's the measured z-score for this one? C=CC[C@@]1(C(=O)NCc2ccccc2)N=C(c2ccc(OCCCO)cc2)O[C@@H]1c1ccccc1
-3.03

// returns reported z-score for input COC(=O)C(CC#Cc1ccc2c(c1)[C@]1(C(=O)N2)[C@H](C(=O)O)[C@H]2C(=O)O[C@H](c3ccccc3)[C@H](c3ccccc3)N2[C@@H]1c1ccc(OCCO)cc1)C(=O)OC
-0.555

// z-score lookup, key: O=c1n(-c2ccccc2)c(=O)n2n1CC(COc1ccccc1)=C1[C@@H](CCc3ccccc3)OB(O)C[C@@H]12
-1.91

---

assay: PSAC antagonists in infected red cells, primary screen, cell-based, P. falciparum Indochina, OD700, 18 h (AID 1157); settings: P. falciparum Indochina infected erythrocytes, osmotic lysis OD700, 18 h; higher = more signal, called active from +8 up or from −8 down
Consider the following compounds and their measured z-score readings.
Hey, just send me the number, nothing else.

compound=CC(=O)NCCCC[C@@H]1NC(=O)[C@@H]2C[C@H](C(=O)O)[C@H](c3cccc(OCCO)c3)N2C1=O value_observed=0.0814

Please report the recorded z-score for CCOC(=O)C[C@H]1[C@H](OC(=O)c2ccc(-c3ccccc3)cc2)[C@@H](NC(=O)c2ccccc2)c2cc(OCCCO)ccc2N1C(=O)c1ccccc1 .
-1.09

What value of z-score has been reported for the following compound? COCCOC(=O)N1C(=O)[C@@]2(c3cc(C#CC4(O)CCCCCC4)ccc31)[C@H](C(=O)NC[C@H](O)c1ccccc1)[C@H]1C(=O)O[C@H](c3ccccc3)[C@H](c3ccccc3)N1[C@@H]2c1ccccc1OCCO
0.922

Which value of z-score has been reported for C=CC[C@]1(C(=O)N(C)C)N=C(c2ccc(OCCCO)cc2)O[C@H]1c1ccccc1CN=[N+]=[N-] in the records?
0.817

Can you look up the measured z-score of COc1ccc([Si](C)(C)[C@@H]2[C@@H](CC(=O)N3CCC[C@H]3CO)O[C@]3(C(=O)N(Cc4ccc(I)cc4)c4ccccc43)[C@H]2C)cc1 for me?
-1.17

Sample COc1ccc([Si](C)(C)[C@H]2[C@H](CC(=O)N3Cc4ccccc4C[C@H]3CO)O[C@@]3(C(=O)N(Cc4cccc(N5C(=O)COc6ccccc65)c4)c4ccccc43)[C@@H]2C)cc1 — what was its z-score?
1.04

Bench note: what z-score did Cc1ccc(S[C@]2(C(=O)NC3CC3)CC(=O)N(Cc3ccccc3C(F)(F)F)[C@@H]2c2ccc(CO)cc2I)cc1 show?
-1.31

Field request: z-score | item: CC(C)[C@@H](C(=O)O)n1cc(-c2ccccn2)nn1
0.0401

Requested read-out: z-score. Entry: O=C1c2ccccc2[C@](Cc2ccccc2I)(C(=O)O)[C@H](c2ccc(CO)cc2)N1Cc1ccccc1Cl
-1.07

z-score for C=C(COC)/C(=C/C[C@H](OC(C)=O)c1ccc(CO)o1)c1cnc2ccccc2c1 ?
-2.05

Would you mind telling me what z-score value was observed for COC(=O)C1=CC(c2ccc(CO)cc2)=CC(c2cccs2)N(C)C=C1C(=O)OC (stereo unspecified) ?
-1.49

---

target: Dihydroorotate dehydrogenase (quinone), mitochondrial (Plasmodium falciparum (isolate 3D7)) (UniProt Q08210); test: PfDHODH enzyme inhibitors, primary screen, biochemical, C-terminal His tag, absorbance 600 nm (AID 1175); details: DCIP absorbance 600 nm, higher = more signal, called active from +8 up or from −8 down;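 also: recombinant parasite enzyme with a five histidine tag at its C terminus; test concentration not given here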
Sequence (Q08210 whole entry, looked up): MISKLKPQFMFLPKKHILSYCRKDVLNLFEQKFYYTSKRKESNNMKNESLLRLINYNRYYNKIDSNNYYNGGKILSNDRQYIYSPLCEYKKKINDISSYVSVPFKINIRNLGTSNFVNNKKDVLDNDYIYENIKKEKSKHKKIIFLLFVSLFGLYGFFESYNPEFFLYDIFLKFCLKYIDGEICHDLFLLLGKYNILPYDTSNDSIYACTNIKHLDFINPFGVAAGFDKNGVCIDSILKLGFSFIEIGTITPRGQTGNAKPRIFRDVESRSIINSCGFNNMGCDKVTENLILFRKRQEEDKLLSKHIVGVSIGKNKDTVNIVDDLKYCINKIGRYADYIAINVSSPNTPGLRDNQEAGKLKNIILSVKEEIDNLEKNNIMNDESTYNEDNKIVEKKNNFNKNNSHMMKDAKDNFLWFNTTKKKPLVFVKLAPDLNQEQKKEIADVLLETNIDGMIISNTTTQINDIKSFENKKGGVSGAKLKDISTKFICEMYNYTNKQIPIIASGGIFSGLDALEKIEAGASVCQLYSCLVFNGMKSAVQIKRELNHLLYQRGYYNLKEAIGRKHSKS
Everything with composite z-score lower than 0.8 is 0 (no); everything else, including exactly 0.8, is 1 (yes).

Solved entries:
compound=COc1ccc(C#Cc2ccc3c(c2)[C@]2(C(=O)N3)[C@H](c3ccc(O)cc3)N3[C@H](c4ccccc4)[C@H](c4ccccc4)OC(=O)[C@H]3[C@@H]2C(N)=O)cc1 class="0 (no)"
compound=O=C1O[C@@H](c2ccccc2)[C@@H](c2ccccc2)N2[C@@H](c3ccc(OCCO)cc3)[C@]3(C(=O)Nc4ccc(C#CC5(O)CCCCCC5)cc43)[C@@H](C(=O)NC[C@H](O)c3ccccc3)[C@H]12 class="1 (yes)"
compound=C=CCN1C(=O)[C@@]2(O[C@@H](CCO)[C@H]([Si](C)(C)c3ccc(OC)cc3)[C@H]2C)c2cc(N3C(=O)c4cccc5cccc3c45)ccc21 class="1 (yes)"
compound="C=CCC(OC(C)=O)[C@@H]1[C@@H](N(Cc2cccc3ccccc23)C(=O)c2cccc3ccccc23)c2cc(OCCCO)ccc2N1C(=O)Cc1ccc(OC)cc1 (stereo partly specified)" class="1 (yes)"

Given the entry COc1ccc([Si](C)(C)[C@@H]2[C@@H](CC(=O)N3CCC[C@H]3CO)O[C@]3(C(=O)N(Cc4ccc(I)cc4)c4ccccc43)[C@H]2C)cc1 , answer whether its composite z-score meets or surpasses 0.8.
0 (no)
